Experimental parameters: in chloroform, 303.15 K
Quantity measured: solubility (mole fraction)
Enter a number only.

Reported solubility (mole fraction) for `O=[N+]([O-])c1cn[nH]c1[N+](=O)[O-]` was 0.00211

---

Experimental parameters: in 2-butanone, 323.15 K
Quantity measured: solubility (mole fraction)
Enter a number only.

Reported solubility (mole fraction) for `O=[N+]([O-])c1cn[nH]c1[N+](=O)[O-]` was 0.645

---

Experimental parameters: in acetonitrile, 283.15 K
Quantity measured: solubility (mole fraction)
Enter a number only.

Reported solubility (mole fraction) for `O=[N+]([O-])c1cn[nH]c1[N+](=O)[O-]` was 0.0745

Value source: BigSolDB 2.1
